GI50 tested on Raji (Burkitt's lymphoma): recorded values

Param readout= GI50; system= Raji (Burkitt's lymphoma); entry= COc1cccc2c1C(=O)c1c(O)c3c(c(O)c1C2=O)C[C@@](O)(C(=O)CO)C[C@@H]3O[C@H]1C[C@H](N)[C@H](O)[C@H](C)O1 [Doxorubicin, reference compound] ; returns value.
0.014 µM

More entries:
Fill in the recorded GI50 for this molecule, with Raji (Burkitt's lymphoma) as test system: C=C1C[C@@]23C[C@@H]1CC[C@]2(O)[C@@]1(C)[C@@H](O)CCC(C)(C)[C@@H]1[C@H](O)C3
> 30 µM

Return GI50 measured with Raji (Burkitt's lymphoma) given this molecule: C=C1C[C@@]23C[C@@H]1CC[C@]2(O)[C@@]1(C)CCC[C@@](C)(CO)[C@@H]1[C@H](O)C3
> 30 µM
